Test system: OVCAR-3 ovarian
Assay explanation: NCI-60 one-dose screen, 48 h (100 = growth as untreated, 0 = no growth, -100 = all killed)
Condition details: 10 µM unless noted
Compounds without any hit were thinned out: in the full panel of roughly 83,000, 20% have a hit.
Give growth for every item shown.
// note: answer is a bare numeric in %

Which growth value belongs to O=C1c2c(c3c4ccccc4[nH]c3c3ccc4ccccc4c23)C(=O)N1CCN1CCCCC1 ?
51.1

Same read-out for O=c1oc2c(cnc3ccccc32)cc1-c1ccsc1 ?
108

Same read-out for COc1cnc2c(c1)C(=O)c1c-2n(CCCNCCO)c(=O)c2ccncc12 ?
8.44

Same read-out for CCCCCOc1ccc(C(=O)/C(Br)=C/C(=O)O)cc1 ?
100

Same read-out for CCCCCCC1(C)NCCO1 (stereo unspecified) ?
114

Same read-out for CC/C(=C(/c1ccc(Cl)cc1)c1ccc(OCCN2CCCC2)cc1)c1ccc(OC)cc1 ?
78.7

* * *

System: NCI-H460 lung
Assay explanation: NCI-60 one-dose screen, 48 h (100 = growth as untreated, 0 = no growth, -100 = all killed)
Condition details: 10 µM unless noted
About 83,000 compounds went through this panel and 20% of them were active in at least one assay; those are over-represented in the sample as a whole.
Observed property: growth (%)
// note: answer is a bare numeric in %

# value lookup — system NCI-H460 lung, readout growth, item O=C(/C=C/c1cccs1)c1ccc(Cl)nc1
106

Same read-out for Cn1c(=O)c2c(nc(NC3=NS(=O)(=O)c4ccccc43)n2CC(=O)N2CCc3ccccc32)n(C)c1=O ?
100

Same read-out for Cc1ccccc1/C=C1\CN(C(=O)OC(C)(C)C)C/C(=C\c2ccccc2C)C1=O ?
-38.3

Same read-out for C=C1C(=O)O[C@H]2[C@H]1CC/C(COC(=O)N[C@H]1C[C@H](O[C@H]3C[C@](O)(C(=O)CO)Cc4c(O)c5c(c(O)c43)C(=O)c3c(OC)cccc3C5=O)O[C@@H](C)[C@H]1O)=C\CC[C@@]1(C)O[C@@H]21 ?
63.4

Same read-out for COc1ccc(/C=N/C2=C(C#N)C(c3cccc(Cl)c3)c3c(ccc4ccccc34)O2)cc1 (stereo not given) ?
16.8

Same read-out for OCc1cccc(-c2ccc3ncc(-c4nc(NC5CC5)ncc4F)n3c2)c1 ?
-4.33

Same read-out for CN1CCN(c2ccc(NC(=O)c3nc4ccc5[nH]ncc5c4c4c3CCCC4)cc2C(F)(F)F)CC1 ?
-55.4

Same read-out for Fc1ccc(Nc2nc3nonc3nc2Nc2ccc(I)cc2)cc1 ?
2.95

Same read-out for O=C(/C=C/c1ccccc1)c1cccc(OCCCOc2cccc(C(=O)/C=C/c3ccccc3)c2)c1 ?
101

Same read-out for O=C(CCC(=O)N/N=C/c1ccccc1O)N/N=C/c1ccccc1O ?
44.4

Same read-out for CCn1c(=S)[nH]c2c(=O)n(C)c(=O)n(C)c21 ?
123

Same read-out for COc1ccc(/C=C2\COc3ccc(O)c(O)c3C2=O)cc1 ?
19.2

Same read-out for COC(=O)c1c2c(c(C)[n+]([O-])c1C)C(=O)C(NCc1ccc(Cl)cc1)=CC2=O ?
51.8

Same read-out for Cc1ccc(CNc2ccc(Cl)cc2NCc2ccc(C)c(O)c2)cc1O ?
2.22

Same read-out for CCOC(=O)c1c(NC(=O)c2ccc(C(C)C)cc2)sc2c(CN(C)C)c(O)ccc12 ?
6.2

Same read-out for COc1cc(-c2csc(NC(=O)c3cc(-n4cnc(C)c4)cc(C(F)(F)F)c3)n2)cc(OC)c1OC ?
33.8

Same read-out for CCn1c(=S)sc2c(Nc3ccc(F)cc3)nc(-c3cccnc3)nc21 ?
64.5

Same read-out for CCCc1cc(NC)nc(S(=O)(=O)CC)n1 ?
110

Same read-out for C=CC(=O)NCc1ccc(Nc2nccc(-c3ccc(N4CCCC4)c(C#N)c3)n2)cc1 ?
23.3

Same read-out for O=C(O)c1ccc(-n2cc(/C=N/Nc3ccc(F)cc3)c(-c3cc4ccccc4oc3=O)n2)cc1 ?
96.5

* * *

System: SF-268 CNS
Assay explanation: NCI-60 one-dose screen, 48 h
Condition details: 10 µM unless noted
Experimental: Cells are grown in 96 well plates and exposed to the test compound for 48 hours. Compounds are tested at a single concentration, which is 10^-5 M for most compounds. The reported endpoint is percent growth (GI% or GIPRCNT), where numbers from 0 - 100% represent growth inhibition, and numbers from -100% - 0 represent cell death. For example, a value of 40 represents 60% growth inhibition. A value of 0 means no net growth occurred over the course of the experiment. […]
Compounds without any hit were thinned out: in the full panel of roughly 83,000, 20% have a hit. Activity calls are given as the source filed them. Rule for the calls: active = growth percent below 10; inactive = the rest.
Could you please pick one outcome from this set? TRUE = active, FALSE = inactive

// return assay outcome for Cc1cccc(N2CCN(CC(O)COc3ccc(Cl)cc3)CC2)c1 (stereo unspecified)
FALSE

Same read-out for Cc1cnc(C(=O)NNc2nc3sc4c(c3c(=O)n2C)C(C)CCC4)cn1 (stereo unspecified) ?
TRUE

Same read-out for O=S(=O)(Nc1ccc(Cl)cc1)c1ccc(-c2cnc(C3CC3)o2)cc1 ?
FALSE

Same read-out for COc1cc(OC)c2sc(-c3ccc(-n4cncc4-c4ccc(OC)c(OC)c4)cc3)nc2c1 ?
FALSE

Same read-out for O=C(NCCCN1CCOCC1)c1cccc(N2C(=O)/C(=C/c3ccc(F)cc3)SC2=S)c1 ?
FALSE

Same read-out for CC(C)n1cnc2c(=S)nc[nH]c21 ?
FALSE

Same read-out for N#C/C(=C\c1ccc2ccccc2c1)c1cc2ccccc2[nH]1 ?
FALSE

Same read-out for CCn1c(=S)[nH]c2c(=O)n(C)c(=O)n(C)c21 ?
FALSE

Same read-out for Cc1nc(N2CCOCC2)sc1S(N)(=O)=O ?
FALSE

Same read-out for C=C(C)[C@@H]1CC[C@]2(C)[C@H](CC=C3[C@@H]4[C@H](C)[C@@H](C)CC[C@]4(CO)CC[C@]32C)[C@@]1(C)CCCN ?
FALSE

Same read-out for CC1=Nc2cnc(Nc3ccc(OCCN4CCCC4)cc3)nc2Nc2ccccc21 ?
FALSE

Same read-out for CC(C)CCNC(=O)Cn1cccc(NC(=O)OCc2ccccc2)c1=O ?
FALSE

Same read-out for COc1cc(CNC(=O)CCCC/C=C/C(C)C)ccc1OCc1nnc(Nc2ccc([N+](=O)[O-])cc2)o1 ?
FALSE

Same read-out for O=C(CCc1nnc(Cn2cnc3nc[nH]c3c2=O)o1)c1nc2ncccc2[nH]1 ?
FALSE

Same read-out for C#CCn1cnc2c(Nc3cccc(NC(=O)C=C)c3)ncnc21 ?
FALSE

Same read-out for CCC(C)N(c1ccc(Cl)cc1)c1nc(-c2ccc(Br)cc2)cs1 (stereo unspecified) ?
FALSE

Same read-out for CC(C)=NNc1ccccn1 ?
FALSE

Same read-out for Fc1cc(F)cc(C(c2c[nH]c3ccccc23)c2c[nH]c3ccccc23)c1 ?
FALSE

Same read-out for COc1ccc2nc(NC(=O)CSc3nnc4n3S(=O)(=O)c3ccccc3N4C)sc2c1 ?
FALSE

Same read-out for CO[C@]12C=C/C(=C(/C(=O)OCc3cccnc3)C(=O)CCCCCCCC[C@@]3(OC)C=C/C(=C(/C(=O)OCc4cccnc4)C(=O)CCCCCCCC1)O3)O2 ?
TRUE

Same read-out for CCn1c(SCC(=O)c2ccc(Br)cc2)nnc1-c1ccncc1 ?
FALSE

* * *

Test system: SF-268 CNS
Assay explanation: NCI-60 one-dose screen, 48 h
Condition details: 10 µM unless noted
This is part of a sample that, as a whole, favours compounds with a hit. Of some 83,000 tested, about 20% had one in any assay. Active and inactive are the calls of the source. Rule for the calls: active = growth percent below 10; inactive = the rest.
Could you please pick one outcome from this set? active, inactive

// return assay outcome for N#Cc1c(-c2ccc(Cl)cc2)nc(NN=Cc2cccc(O)c2)nc1N1CCOCC1
inactive

Same read-out for C=C1C(=O)O[C@H]2[C@H]1CC/C(COC(=O)CCSCCC(=O)OC/C1=C/CC[C@@]3(C)O[C@H]3[C@H]3OC(=O)C(=C)[C@@H]3CC1)=C\CC[C@@]1(C)O[C@@H]21 ?
inactive

Same read-out for COC(=O)CCC(=O)C(=O)OC ?
active

Same read-out for C1=C(N2CCCC2)CCC1 ?
inactive

Same read-out for CCS/C(Nc1ccccc1)=C(\C#N)C(=O)N/N=C/c1ccc(Cl)cc1Cl ?
inactive

Same read-out for O=C1c2ccc3c4ccc5c6c(ccc(c7ccc(c2c37)C(=O)N1CCC[P+](c1ccccc1)(c1ccccc1)c1ccccc1)c64)C(=O)N(CCC[P+](c1ccccc1)(c1ccccc1)c1ccccc1)C5=O ?
inactive

Same read-out for Cc1ccc(CNc2ccc(Cl)cc2NCc2ccc(C)c(O)c2)cc1O ?
inactive

Same read-out for CCN(CC)CCNC(=O)c1cn2ncnc(Oc3ccc(NC(=O)Nc4ccc(Cl)c(C(F)(F)F)c4)c(F)c3)c2c1C ?
inactive

Same read-out for N#CC1CCc2c(c(-c3cn[nH]c3C(F)(F)F)nc3c(F)cc4[nH]ncc4c23)C1 (stereo not given) ?
inactive

Same read-out for Cn1ccnc1C(=O)C(=O)Nc1ccc(CC(=O)Nc2ccccc2)cc1 ?
inactive

Same read-out for N=C(N)c1ccc(-c2ccc(-c3ccc(F)cc3)o2)o1 ?
inactive

Same read-out for CC1=C(C(=O)OC(C)C)C(c2ccc3c(c2)OCO3)NC(=S)N1 (stereo not given) ?
inactive

Same read-out for COc1ccc2[nH]cc(-c3nc(-c4c[nH]c5ccncc45)cs3)c2c1 ?
inactive

Same read-out for CC1=C(CCC(C)N(C)Cc2ccc(OCCCN3CCCC3)cc2)C(C)(C)CCC1 (stereo not given) ?
inactive

Same read-out for Cc1ccccc1NC(=O)c1sc2nc(C)c(C(=O)/C=C/c3ccccc3)cc2c1N ?
inactive

Same read-out for CN1CCN(C(=O)OCc2ccc3c(Cl)cc(Cl)c(O)c3n2)CC1 ?
inactive

Same read-out for OCc1cccc(-c2ccc3ncc(-c4nc(NC5CC5)ncc4F)n3c2)c1 ?
active

Same read-out for COc1ccc(C(=O)C2C(c3ccc(OC)cc3)CN(C)C23C(=O)Nc2ccccc23)cc1 (stereo not given) ?
inactive

Same read-out for Cc1ccc(-c2nc(/C=C3/C(=O)Nc4ccccc43)c3ccccn23)cc1 ?
inactive

Same read-out for CCOC(=O)C1=C(NC)OCC1=O ?
inactive

The measurements presented in this section are drawn from PubChem BioAssay (NCI).
